Reported melting point values follow for various compounds

Structure: C=CCN1CCN(c2ccc(C(=O)C=Cc3cccc4ccccc34)cc2)CC1
melting point: 120.2 to 121.9 °C

**Query** Recorded melting point of "C=CCN1CCN(c2ccc(C(=O)C=Cc3ccc4ccccc4c3)cc2)CC1" , please.
**Result** 186.9 to 188.8 °C

**Query** Queued: "CCN1CCN(c2ccc(C(=O)C=Cc3ccc4ccccc4c3)cc2)CC1"
**Result** 196.5 to 198 °C

**Query** Queued: "CCN1CCN(c2ccc(C(=O)C=Cc3cccc4ccccc34)cc2)CC1"
**Result** 164.6 to 166.1 °C

**Query** Queued: "CN1CCN(c2ccc(C(=O)C=Cc3ccc4ccccc4c3)cc2)CC1"
**Result** 204.5 to 206.2 °C

**Query** Queued: "COCCN1CCN(c2ccc(C(=O)C=Cc3cccc4ccccc34)cc2)CC1"
**Result** 136.2 to 137.8 °C

**Query** Queued: "CC(C)N1CCN(c2ccc(C(=O)C=Cc3ccc4ccccc4c3)cc2)CC1"
**Result** 213.3 to 214.9 °C

**Query** Queued: "CN1CCN(c2ccc(C(=O)C=Cc3cccc4ccccc34)cc2)CC1"
**Result** 150.2 to 152.1 °C

**Query** Queued: "CC(C)N1CCN(c2ccc(C(=O)C=Cc3cccc4ccccc34)cc2)CC1"
**Result** 146.8 to 147.5 °C

----------
Reported MIC50 values follow for various compounds
system: P. aeruginosa (ATCC 27853); assay: Antibacterial activity, MIC50 by resazurin fluorometric measurement; assay type: cell-based; settings: Pseudomonas aeruginosa, ATCC27853; means of triplicate assays

**Query** Recorded MIC50 of "CC(C)N1CCN(c2ccc(C(=O)C=Cc3cccc4ccccc34)cc2)CC1" , please.
**Result** 62.5 µg/mL

**Query** Queued: "CC(C)N1CCN(c2ccc(C(=O)C=Cc3ccc4ccccc4c3)cc2)CC1"
**Result** > 100 µg/mL

**Query** Queued: "CCN1CCN(c2ccc(C(=O)C=Cc3ccc4ccccc4c3)cc2)CC1"
**Result** > 100 µg/mL

----------
test system: C. parapsilopsis (ATCC 22019)
Reported MIC50 values follow for various molecules

Molecule: C[C@@H](c1ncncc1F)[C@](O)(Cn1cncn1)c1ccc(F)cc1F [SD2, Voriconazole, reference compound]
MIC50: 1.95 µg/mL

Molecule: CC(C)N1CCN(c2ccc(C(=O)C=Cc3ccc4ccccc4c3)cc2)CC1
MIC50: > 100 µg/mL

Molecule: COCCN1CCN(c2ccc(C(=O)C=Cc3cccc4ccccc34)cc2)CC1
MIC50: > 100 µg/mL

**Query** Request body: readout MIC50, system C. parapsilopsis (ATCC 22019), query OC(Cn1cncn1)(Cn1cncn1)c1ccc(F)cc1F [SD3, Fluconazole, reference compound] . Return the value.
**Result** 3.9 µg/mL

**Query** Queued: "CCN1CCN(c2ccc(C(=O)C=Cc3cccc4ccccc34)cc2)CC1"
**Result** > 100 µg/mL

**Query** Queued: "CCN1CCN(c2ccc(C(=O)C=Cc3ccc4ccccc4c3)cc2)CC1"
**Result** > 100 µg/mL

**Query** Queued: "CN1CCN(c2ccc(C(=O)C=Cc3cccc4ccccc34)cc2)CC1"
**Result** 62.5 µg/mL

**Query** Queued: "C=CCN1CCN(c2ccc(C(=O)C=Cc3cccc4ccccc34)cc2)CC1"
**Result** > 100 µg/mL

**Query** Queued: "CN1CCN(c2ccc(C(=O)C=Cc3ccc4ccccc4c3)cc2)CC1"
**Result** > 100 µg/mL

----------
Reported MIC50 values follow for various compounds
system: C. parapsilopsis (ATCC 22019)

Structure: CC(C)N1CCN(c2ccc(C(=O)C=Cc3cccc4ccccc34)cc2)CC1
MIC50: > 100 mg/L

**Query** Request body: readout MIC50, system C. parapsilopsis (ATCC 22019), query "COCCN1CCN(c2ccc(C(=O)C=Cc3ccc4ccccc4c3)cc2)CC1" . Return the value.
**Result** > 100 mg/L

**Query** Queued: "C=CCN1CCN(c2ccc(C(=O)C=Cc3ccc4ccccc4c3)cc2)CC1"
**Result** > 100 mg/L

----------
test system: healthy mouse fibroblast cell (NIH3T3); assay: MTT cytotoxicity test on healthy cells; format: cell-based; settings: 24-h treatment, means of quartet assays ± SEM
Reported IC50 values follow for various compounds
Please state the figure in µM; there is no need to write the unit.

These recorded examples may help you get a feel for the data.
Compound: CC(C)N1CCN(c2ccc(C(=O)C=Cc3ccc4ccccc4c3)cc2)CC1 [2h]
IC50 / µM: 66.5
--
Compound: C=CCN1CCN(c2ccc(C(=O)C=Cc3cccc4ccccc34)cc2)CC1 [2d]
IC50 / µM: 19.8
--
Compound: CCN1CCN(c2ccc(C(=O)C=Cc3cccc4ccccc34)cc2)CC1 [2b]
IC50 / µM: 22.9
--
Compound: CN1CCN(c2ccc(C(=O)C=Cc3cccc4ccccc34)cc2)CC1 [2a]
IC50 / µM: 61.9
--
Compound: CCN1CCN(c2ccc(C(=O)C=Cc3ccc4ccccc4c3)cc2)CC1 [2g]
IC50 / µM: 52.4

**Query** Recorded IC50 of COCCN1CCN(c2ccc(C(=O)C=Cc3ccc4ccccc4c3)cc2)CC1 [2j] , please.
**Result** 15.6

**Query** Queued: CN1CCN(c2ccc(C(=O)C=Cc3ccc4ccccc4c3)cc2)CC1 [2f]
**Result** 25.6

**Query** Queued: COCCN1CCN(c2ccc(C(=O)C=Cc3cccc4ccccc34)cc2)CC1 [2e]
**Result** 19.8

----------
test system: healthy mouse fibroblast cell (NIH3T3); experiment: MTT cytotoxicity test on healthy cells; assay type: cell-based; details: 24-h treatment, means of quartet assays ± SEM
Reported Property: IC50

Compound: CC(C)N1CCN(c2ccc(C(=O)C=Cc3cccc4ccccc34)cc2)CC1
IC50: > 100 µM
--
Compound: C=CCN1CCN(c2ccc(C(=O)C=Cc3ccc4ccccc4c3)cc2)CC1
IC50: > 100 µM

# next compound below
**Query** Recorded IC50 of COc1cccc2c1C(=O)c1c(O)c3c(c(O)c1C2=O)C[C@@](O)(C(=O)CO)C[C@@H]3O[C@H]1C[C@H](N)[C@H](O)[C@H](C)O1 [SD4, Doxorubicin, reference compound] , please.
**Result** > 100 µM

Sourced from paper PMC9947975
